All values here come from ChEMBL document CHEMBL1765015.

- subjectOfTest: Delta-type opioid receptor (Homo sapiens)
- Sequence (P41143 whole entry): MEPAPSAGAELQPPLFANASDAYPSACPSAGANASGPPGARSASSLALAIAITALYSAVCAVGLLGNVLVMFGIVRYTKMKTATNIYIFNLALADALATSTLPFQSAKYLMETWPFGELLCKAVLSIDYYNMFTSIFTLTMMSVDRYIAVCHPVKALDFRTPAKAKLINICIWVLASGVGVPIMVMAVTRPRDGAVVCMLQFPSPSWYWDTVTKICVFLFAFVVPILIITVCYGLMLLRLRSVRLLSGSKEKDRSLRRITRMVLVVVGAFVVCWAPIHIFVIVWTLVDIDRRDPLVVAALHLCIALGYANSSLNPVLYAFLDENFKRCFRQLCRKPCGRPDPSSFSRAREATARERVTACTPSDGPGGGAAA
- measurementProtocol: Displacement of [3H]DPDPE from human delta opioid receptor expressed in mouse HN9.10 cells
pIC50: −log10 of the molar value.
valueType: pIC50

- smilesString: "CCCC[C@H](NC(=O)[C@H](Cc1ccccc1)NC(=O)CNC(=O)[C@@H](C)NC(=O)[C@@H](N)Cc1c(C)cc(O)cc1C)C(=O)N1CCC[C@H]1C(=O)N[C@@H](CC(C)C)C(=O)N[C@@H](Cc1c[nH]c2ccccc12)C(=O)NCc1cc(C(F)(F)F)cc(C(F)(F)F)c1"
  valueType: "pIC50"
  valueReported: 7.62
- smilesString: "CCCC[C@H](NC(=O)[C@H](Cc1ccccc1)NC(=O)CNC(=O)[C@@H](C)NC(=O)[C@@H](N)Cc1c(C)cc(O)cc1C)C(=O)N1CCC[C@H]1C(=O)N[C@@H](CC(C)C)C(=O)N[C@@H](Cc1c[nH]c2ccccc12)C(=O)NCc1ccc(OC)c(OC)c1"
  valueType: "pIC50"
  valueReported: 9.50
- smilesString: "CCCC[C@H](NC(=O)[C@H](Cc1ccccc1)NC(=O)CNC(=O)[C@@H](C)NC(=O)[C@@H](N)Cc1c(C)cc(O)cc1C)C(=O)N1CCC[C@H]1C(=O)N[C@@H](CC(C)C)C(=O)N[C@@H](Cc1c[nH]c2ccccc12)C(=O)N(C)Cc1cc(C(F)(F)F)cc(C(F)(F)F)c1"
  valueType: "pIC50"
  valueReported: 9.01
- smilesString: "CCCC[C@H](NC(=O)[C@H](Cc1ccccc1)NC(=O)CNC(=O)[C@@H](C)NC(=O)[C@@H](N)Cc1c(C)cc(O)cc1C)C(=O)N1CCC[C@H]1C(=O)N[C@@H](CC(C)C)C(=O)N[C@@H](Cc1c[nH]c2ccccc12)C(=O)NCc1cccc(C(F)(F)F)c1"
  valueType: "pIC50"
  valueReported: 8.07
- smilesString: "CSCC[C@H](NC(=O)[C@H](Cc1ccccc1)NC(=O)CNC(=O)[C@@H](C)NC(=O)[C@@H](N)Cc1c(C)cc(O)cc1C)C(=O)N1CCC[C@H]1C(=O)N[C@@H](CC(C)C)C(=O)N[C@@H](Cc1c[nH]c2ccccc12)C(=O)NCc1cc(C(F)(F)F)cc(C(F)(F)F)c1"
  valueType: "pIC50"
  valueReported: 9.42
